Hi there, I'd appreciate the recorded half-life at 1 μM for every entry that follows.
test: Microsome stability assay, mouse liver microsomes; assay type: in vitro ADME; details: pH 7.4, 1 μM test compound, NADPH 1 mM, 37° C., 0-40 mins, read-out: MLM t1/2

**Q:** For CC(C)(C)c1ccc(-c2nc3cc(C(F)(F)F)ccc3[nH]2)cc1 , what is its reported half-life at 1 μM?
**A:** 110 min

**Q:** For CC(C)(C)c1ccc(-c2nc3c(C(F)(F)F)cccc3[nH]2)cc1 , what is its reported half-life at 1 μM?
**A:** 23.2 min

**Q:** For CC(C)(C)c1ccc(-c2nc3c(F)c(F)ccc3[nH]2)cc1 , what is its reported half-life at 1 μM?
**A:** 21.4 min

**Q:** For CC(C)(C)c1ccc(-c2nc3ccccc3[nH]2)cc1 , what is its reported half-life at 1 μM?
**A:** 16.7 min
